Each recorded value in this set is attributed to patent US20090215025A1.

Biological target: plasma-derived (pd-) human Factor VIII (FVIII) (Homo sapiens)
Construct: from tissue; host or cells: human blood plasma (FVIII concentrate)
Assay: Binding of 125I-labeled pd-FVIII to peptides immobilized on Toyopearl AF-Epoxy-650M resin (micro-beads assay)
Details: Table 1; 125I-pd-FVIII Bound/Background ratio versus uncoated control resin
parameterMeasured: Binding, rel. to control

1. H-Trp-Glu-Tyr-Aha-Cys-OH [Compound P5] ... 22.2
2. IBA-Asp-Tyr-Cys-OH [Compound P18] ... 20.2
3. IPA-Glu-Tyr-Cys-OH [Compound P19] ... 18.7

---

Biological target: plasma-derived (pd-) human Factor VIII (FVIII) (Homo sapiens, UniProt P00451)
Construct: from tissue; host or cells: human blood plasma (FVIII concentrate)
Sequence (P00451 20-1667 limits assumed): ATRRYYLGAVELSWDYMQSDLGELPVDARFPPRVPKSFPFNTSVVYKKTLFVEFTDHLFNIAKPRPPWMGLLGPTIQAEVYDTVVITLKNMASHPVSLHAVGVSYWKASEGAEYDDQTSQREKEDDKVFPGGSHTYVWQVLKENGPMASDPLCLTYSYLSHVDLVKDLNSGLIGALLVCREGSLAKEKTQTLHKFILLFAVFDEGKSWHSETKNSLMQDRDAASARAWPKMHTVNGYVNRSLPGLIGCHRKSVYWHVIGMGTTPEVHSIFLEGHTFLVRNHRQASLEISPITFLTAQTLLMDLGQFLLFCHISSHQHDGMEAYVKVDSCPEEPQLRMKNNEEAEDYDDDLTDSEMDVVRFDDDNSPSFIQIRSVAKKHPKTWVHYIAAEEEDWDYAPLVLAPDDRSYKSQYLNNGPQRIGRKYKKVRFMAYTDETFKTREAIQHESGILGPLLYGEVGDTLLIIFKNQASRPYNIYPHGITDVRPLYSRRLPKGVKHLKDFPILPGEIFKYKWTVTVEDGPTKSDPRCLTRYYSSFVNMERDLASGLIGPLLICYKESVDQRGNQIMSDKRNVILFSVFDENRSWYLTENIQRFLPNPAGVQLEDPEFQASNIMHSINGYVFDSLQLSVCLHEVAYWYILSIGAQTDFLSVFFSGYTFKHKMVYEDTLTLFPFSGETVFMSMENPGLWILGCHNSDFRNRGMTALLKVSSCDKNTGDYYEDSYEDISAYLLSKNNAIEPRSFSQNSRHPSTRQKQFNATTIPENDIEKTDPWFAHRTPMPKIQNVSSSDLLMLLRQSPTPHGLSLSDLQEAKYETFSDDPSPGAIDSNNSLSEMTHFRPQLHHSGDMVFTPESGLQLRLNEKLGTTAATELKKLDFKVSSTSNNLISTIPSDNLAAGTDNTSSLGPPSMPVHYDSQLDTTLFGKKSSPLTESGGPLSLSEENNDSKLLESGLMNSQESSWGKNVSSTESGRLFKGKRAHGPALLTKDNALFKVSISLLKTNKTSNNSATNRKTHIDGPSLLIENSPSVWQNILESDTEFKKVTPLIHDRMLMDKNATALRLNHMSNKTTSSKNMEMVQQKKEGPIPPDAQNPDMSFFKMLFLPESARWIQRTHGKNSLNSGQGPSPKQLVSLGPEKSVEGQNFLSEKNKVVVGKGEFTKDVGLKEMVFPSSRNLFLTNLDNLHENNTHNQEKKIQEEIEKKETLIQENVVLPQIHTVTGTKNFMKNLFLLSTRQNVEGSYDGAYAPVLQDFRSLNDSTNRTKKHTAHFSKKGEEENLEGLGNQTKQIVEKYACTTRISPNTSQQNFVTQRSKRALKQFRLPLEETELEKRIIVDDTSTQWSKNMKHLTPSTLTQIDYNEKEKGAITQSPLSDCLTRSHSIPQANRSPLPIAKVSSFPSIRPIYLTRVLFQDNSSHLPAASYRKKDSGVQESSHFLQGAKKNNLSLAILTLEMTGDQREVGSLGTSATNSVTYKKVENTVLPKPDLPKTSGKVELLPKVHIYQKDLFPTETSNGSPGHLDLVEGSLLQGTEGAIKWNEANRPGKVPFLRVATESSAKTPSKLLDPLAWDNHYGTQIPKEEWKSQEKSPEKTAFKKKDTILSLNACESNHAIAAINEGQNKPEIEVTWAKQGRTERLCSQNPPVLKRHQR
Sequence (P00451 1668-2351 limits assumed): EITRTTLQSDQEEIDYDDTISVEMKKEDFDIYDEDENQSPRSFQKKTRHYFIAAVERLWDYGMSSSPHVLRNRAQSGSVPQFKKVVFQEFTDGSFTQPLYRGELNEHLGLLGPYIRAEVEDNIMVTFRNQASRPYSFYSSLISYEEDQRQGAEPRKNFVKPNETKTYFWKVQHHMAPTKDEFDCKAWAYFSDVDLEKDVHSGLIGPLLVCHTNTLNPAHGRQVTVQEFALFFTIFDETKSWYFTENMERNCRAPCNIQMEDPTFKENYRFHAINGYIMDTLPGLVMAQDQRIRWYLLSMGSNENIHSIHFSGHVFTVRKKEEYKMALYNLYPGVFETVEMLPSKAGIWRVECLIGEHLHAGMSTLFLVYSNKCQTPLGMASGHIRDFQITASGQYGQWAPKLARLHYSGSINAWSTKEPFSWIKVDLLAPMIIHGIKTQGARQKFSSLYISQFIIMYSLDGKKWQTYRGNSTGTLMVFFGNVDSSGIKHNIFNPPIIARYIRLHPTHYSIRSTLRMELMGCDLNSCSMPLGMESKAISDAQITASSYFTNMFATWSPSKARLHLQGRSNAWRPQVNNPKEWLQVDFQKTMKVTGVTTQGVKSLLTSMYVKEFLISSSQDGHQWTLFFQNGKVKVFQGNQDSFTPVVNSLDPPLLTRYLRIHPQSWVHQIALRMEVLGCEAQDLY
Assay: Binding of 125I-labeled pd-FVIII to peptides immobilized on Toyopearl AF-Epoxy-650M resin (micro-beads assay)
Settings: Table 1; immobilized on Toyopearl AF-Epoxy-650M; percent of maximal achievable binding (anti-FVIII Mab 8860-coated resin); mean of four determinations
parameterMeasured: % Binding pdFVIII (%)

1. IAA-Glu-Tyr-Cys-OH [Compound P15] ... 75.4
2. IAA-Asp-Tyr-Cys-OH [Compound P16] ... 70.1
3. H-Trp-Asp-Tyr-Cys-OH (H-WDYC-OH) [Compound P11] ... 62.8

---

Target: plasma-derived (pd-) human Factor VIII (FVIII) (Homo sapiens, UniProt P00451)
Construct: from tissue; host or cells: human blood plasma (FVIII concentrate)
Experiment: Binding of 125I-labeled pd-FVIII to peptides immobilized on Toyopearl AF-Epoxy-650M resin (micro-beads assay)
Conditions: Table 1; immobilized on Toyopearl AF-Epoxy-650M; percent of maximal achievable binding (anti-FVIII Mab 8860-coated resin); mean of four determinations
parameterMeasured: % Binding pdFVIII (%)

Recorded results for 8 substances are shown here.
1) H-Trp-Glu-Tyr-Cys-OH (H-WEYC-OH) [Compound P1] ... 47.6
2) IBA-Asp-Tyr-Cys-OH [Compound P18] ... 57.2
3) H-Trp-Glu-Tyr-Aha-Cys-OH [Compound P5] ... 42.7
4) Ac-Trp-Glu-Tyr-Cys-NH2 (Ac-WEYC-NH2) [Compound P2] ... 53.6
5) IPA-Asp-Tyr-Cys-OH [Compound P20] ... 60.7
6) H-Trp-Glu-Tyr-Gly-Cys-OH (H-WEYGC-OH) [Compound P4] ... 52.7
7) IPA-Glu-Tyr-Cys-OH [Compound P19] ... 53.2
8) H-Trp-Glu-Tyr-homo-Cys-OH [Compound P3] ... 38.4

P: H-Trp-Glu-Phe-Cys-OH (H-WEFC-OH) [Compound P8]
Q: H-Trp-Glu-Tyr-Gly-Aha-Cys-OH [Compound P6]
R: IBA-Glu-Tyr-Cys-OH [Compound P17]
Kindly order the items shown according to % Binding pdFVIII, from the highest value down. Ranked list of labels, please, in the requested order.
R, Q, P

---

Target: plasma-derived (pd-) human Factor VIII (FVIII) (Homo sapiens, UniProt P00451)
Construct: from tissue; host or cells: human blood plasma (FVIII concentrate)
Assay: Binding of 125I-labeled pd-FVIII to peptides immobilized on Toyopearl AF-Epoxy-650M resin (micro-beads assay)
Details: Table 1; 125I-pd-FVIII Bound/Background ratio versus uncoated control resin
parameterMeasured: Binding, rel. to control

Solved cases (6 shown):
1) H-Trp-Glu-Tyr-Cys-OH (H-WEYC-OH) [Compound P1] ... 20.9
2) IBA-Glu-Tyr-Cys-OH [Compound P17] ... 24.7
3) H-Trp-Asp-Tyr-Cys-OH (H-WDYC-OH) [Compound P11] ... 24.7
4) IPA-Asp-Tyr-Cys-OH [Compound P20] ... 21.4
5) Ac-Trp-Glu-Tyr-Cys-NH2 (Ac-WEYC-NH2) [Compound P2] ... 18.9
6) H-Trp-Glu-Tyr-Gly-Cys-OH (H-WEYGC-OH) [Compound P4] ... 27.4

P: H-Trp-Glu-Tyr-Gly-Aha-Cys-OH [Compound P6]
Q: H-Trp-Glu-Phe-Cys-OH (H-WEFC-OH) [Compound P8]
R: IAA-Asp-Tyr-Cys-OH [Compound P16]
S: IAA-Glu-Tyr-Cys-OH [Compound P15]
Sort the 4 substances by Binding, rel. to control; largest first, smallest last. Give your ranking as a list of the labels in the requested order.
S, R, P, Q
(S: 39.3, R: 24.7, P: 15.2, Q: 8.7)
